target: κ receptor (Cavia porcellus); construct: tissue homogenates prepared from guinea pig brains (cortex and cerebellum); tissue Harlan Bioproducts for Science (Indianapolis, Ind.); host or cells: guinea pig brain, cortex and cerebellum, crude membrane homogenate; experiment: Radioreceptor assay selective for the kappa receptor (inhibition of [3H]-U69,593 binding); parameters: species or system guinea pig
Sequence (P41144 whole entry): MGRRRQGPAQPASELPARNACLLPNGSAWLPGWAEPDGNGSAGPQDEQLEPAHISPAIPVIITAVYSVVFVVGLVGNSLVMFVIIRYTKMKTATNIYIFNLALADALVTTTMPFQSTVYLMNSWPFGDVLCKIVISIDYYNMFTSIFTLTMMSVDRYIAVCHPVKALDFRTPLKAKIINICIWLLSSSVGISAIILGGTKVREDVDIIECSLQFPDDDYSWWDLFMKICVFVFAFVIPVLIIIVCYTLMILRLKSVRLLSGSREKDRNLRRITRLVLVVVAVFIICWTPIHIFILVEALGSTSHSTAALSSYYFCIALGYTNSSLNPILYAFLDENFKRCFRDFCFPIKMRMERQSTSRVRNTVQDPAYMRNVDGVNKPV
# IC50 listing for each entry below
property_label: IC50 (nM)

INSERT INTO measurements (substance, target_desc, property_label, data_value) VALUES
  ('Ac-YRTRYRYRRR-NH2 [SEQ ID NO. 1]', 'κ receptor (Cavia porcellus)', 'IC50', 10),
  ('Ac-YRMRYRYRRR-NH2 [SEQ ID NO. 4]', 'κ receptor (Cavia porcellus)', 'IC50', 36),
  ('Ac-RRFRYRYRRR-NH2 [SEQ ID NO. 5]', 'κ receptor (Cavia porcellus)', 'IC50', 142),
  ('Ac-RFFRYRYRRR-NH2 [SEQ ID NO. 3]', 'κ receptor (Cavia porcellus)', 'IC50', 22),
  ('Ac-YRFRYRYRRR-NH2 [SEQ ID NO. 2]', 'κ receptor (Cavia porcellus)', 'IC50', 18);
